target-system: hNLRP3 (Homo sapiens, UniProt Q96P20)
Construct: THP-1 cells were purchased from the American Type Culture Collection
Sequence (Q96P20 whole entry): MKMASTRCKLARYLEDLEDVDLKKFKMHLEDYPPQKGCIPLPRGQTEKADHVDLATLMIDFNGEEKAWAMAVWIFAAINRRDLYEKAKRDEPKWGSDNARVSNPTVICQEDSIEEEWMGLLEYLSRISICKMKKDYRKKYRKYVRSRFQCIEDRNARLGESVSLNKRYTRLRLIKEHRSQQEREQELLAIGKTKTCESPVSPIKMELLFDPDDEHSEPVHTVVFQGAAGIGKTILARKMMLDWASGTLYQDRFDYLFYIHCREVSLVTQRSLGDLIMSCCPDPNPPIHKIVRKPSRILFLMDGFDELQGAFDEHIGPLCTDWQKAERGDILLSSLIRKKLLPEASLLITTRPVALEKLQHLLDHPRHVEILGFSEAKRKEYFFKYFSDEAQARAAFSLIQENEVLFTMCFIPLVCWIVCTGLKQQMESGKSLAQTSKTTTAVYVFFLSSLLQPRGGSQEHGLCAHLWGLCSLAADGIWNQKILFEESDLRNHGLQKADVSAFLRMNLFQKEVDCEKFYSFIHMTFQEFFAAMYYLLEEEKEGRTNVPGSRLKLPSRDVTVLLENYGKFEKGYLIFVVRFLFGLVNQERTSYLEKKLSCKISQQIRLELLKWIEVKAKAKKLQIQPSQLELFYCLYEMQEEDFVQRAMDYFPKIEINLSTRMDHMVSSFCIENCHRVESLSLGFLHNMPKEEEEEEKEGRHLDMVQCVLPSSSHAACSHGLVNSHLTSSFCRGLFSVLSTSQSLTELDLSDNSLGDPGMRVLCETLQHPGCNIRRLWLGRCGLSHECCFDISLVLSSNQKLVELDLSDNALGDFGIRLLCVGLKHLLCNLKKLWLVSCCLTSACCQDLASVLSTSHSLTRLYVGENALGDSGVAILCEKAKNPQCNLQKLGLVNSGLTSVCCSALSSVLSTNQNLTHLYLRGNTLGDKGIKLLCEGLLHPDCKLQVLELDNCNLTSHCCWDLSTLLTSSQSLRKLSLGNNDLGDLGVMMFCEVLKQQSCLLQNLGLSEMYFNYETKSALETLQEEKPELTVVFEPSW
test-method-notes: IL-1β production in PMA-differentiated THP-1 cells stimulated with gramicidin (hTHP-1 assay)
experimental-context: read-out: NLRP3 Antagonist, hNLRP3 (THP-1, IL-1b) Normalized: GeoMean IC50
Experimental: Procedure 1: IL-1β Production in PMA-Differentiated THP-1 Cells Stimulated with Gramicidin. THP-1 cells were purchased from the American Type Culture Collection and sub-cultured according to instructions from the supplier. […] THP-1 cells were purchased from the American Type Culture Collection and sub-cultured according to instructions from the supplier. […] Cell free supernatant (40 μL) was collected using a 96-channel PlateMaster (Gilson) and the production of IL-1β was evaluated by HTRF (cisbio). […]
Measured IC50 values are reported for all entries that follow.

# compound, IC50
records = [
    ("CC(C)c1cc(C(F)F)cc(C(C)C)c1CC(=O)N=S1(=O)NC(=O)c2cc(CN(C)C)ccc21 (stereo not drawn) [Compound 124]", "> 30 µM"),
    ("COC(=O)c1ccc2c(c1)S(=O)(=NC(=O)Nc1c3c(cc4c1CCC4)CCC3)NC2=O (single isomer, unassigned) [Compound 134b]", "5 to 30 µM"),
    ("CC(C)(O)c1ccc2c(c1)S(=O)(=NC(=O)Nc1c3c(cc4c1CCC4)CCC3)NC2 (stereo not drawn) [Compound 126]", "> 30 µM"),
    ("CC(C)c1cc(C(F)F)cc(C(C)C)c1CC(=O)N=S1(=O)NC(=O)c2ccccc21 (stereo not drawn) [Compound 123a]", "> 30 µM"),
    ("CC(O)(CO)c1ccc2c(c1)S(=O)(=NC(=O)Nc1c3c(cc4c1CCC4)CCC3)NC2=O (stereo not drawn) [Compound 208]", "0.04 to 0.2 µM"),
    ("O=C1CCCS(=O)(=NC(=O)Nc2c3c(cc4c2CCC4)CCC3)N1 (stereo not drawn) [Compound 113]", "1 to 5 µM"),
    ("CC(C)(O)c1ccc2c(c1)S(=O)(=NC(=O)Nc1c3c(cc4c1CC4)CCC3)NC2=O (single isomer, unassigned) [Compound 112a]", "0.04 to 0.2 µM"),
    ("C=C(C)c1ccc2c(c1)S(=O)(=NC(=O)Nc1c3c(cc4c1CCC4)CCC3)NC2=O (stereo not drawn) [Compound 207]", "5 to 30 µM"),
    ("CN(C)Cc1ccc2c(c1)S(=O)(=NC(=O)Nc1c3c(cc4c1CCC4)CCC3)NC2 (stereo not drawn) [Compound 133]", "5 to 30 µM"),
    ("CC(C)(O)c1ccc2c(c1)S(=O)(=NC(=O)Nc1c3c(nc4c1CCC4(C)C)CCC3)NC2=O (stereo not drawn) [Compound 118]", "1 to 5 µM"),
    ("O=C(N=S1(=O)NC(=O)c2ccc(Br)cc21)Nc1c2c(cc3c1CCC3)CCC2 (stereo not drawn) [Compound 103]", "1 to 5 µM"),
    ("COC(=O)c1ccc2c(c1)S(=O)(=NC(=O)Nc1c3c(cc4c1CCC4)CCC3)NC2=O (stereo not drawn) [Compound 134]", "5 to 30 µM"),
    ("O=C(N=S1(=O)CCCN1)Nc1c2c(cc3c1CCC3)CCC2 (single isomer, unassigned) [Compound 119a]", "5 to 30 µM"),
    ("CC(C)(O)c1ccc2c(c1)S(=O)(=NC(=O)Nc1c3c(cc4c1CCC4)CCC3)NC2=O (racemic) [Compound 127]", "0.2 to 1 µM"),
    ("CC(C)(O)c1ccc2c(c1)S(=O)(=NC(=O)Cc1c3c(cc4c1CCC4)CCC3)NC2=O (single isomer, unassigned) [Compound 115a]", "5 to 30 µM"),
]

----------
target-system: hNLRP3 (Homo sapiens)
Construct: THP-1 cells were purchased from the American Type Culture Collection
test-method-notes: IL-1β production in PMA-differentiated THP-1 cells stimulated with gramicidin (hTHP-1 assay)
experimental-context: read-out: NLRP3 Antagonist, hNLRP3 (THP-1, IL-1b) Normalized: GeoMean IC50

# compound, IC50
measured = [
    ("CC(C)(O)c1ccc2c(c1)S(=O)(=NC(=O)Nc1c3c(nc4c1CCC4)CCC3)NC2=O (stereo not shown) [Compound 117]", "1 to 5 µM"),
    ("Cc1c(C(F)(F)F)nc2c(c1NC(=O)N=S1(=O)NC(=O)c3ccc(C(C)(C)O)cc31)CCC2 (single isomer, unassigned) [Compound 108a]", "0.2 to 1 µM"),
    ("CN1Cc2ccccc2S1(=O)=NC(=O)Nc1c2c(cc3c1CCC3)CCC2 (stereo not shown) [Compound 107]", "> 30 µM"),
    ("CC(C)(O)c1ccc2c(c1)C(=O)NS2(=O)=NC(=O)Nc1c2c(cc3c1CCC3)CCC2 (single isomer, unassigned) [Compound 121b]", "5 to 30 µM"),
]

----------
target-system: hNLRP3 (Homo sapiens, UniProt Q96P20)
Construct: THP-1 cells were purchased from the American Type Culture Collection
test-method-notes: IL-1β production in PMA-differentiated THP-1 cells stimulated with gramicidin (hTHP-1 assay)
experimental-context: read-out: NLRP3 Antagonist, hNLRP3 (THP-1, IL-1b) Normalized: GeoMean IC50
Protocol: Procedure 1: IL-1β Production in PMA-Differentiated THP-1 Cells Stimulated with Gramicidin. THP-1 cells were purchased from the American Type Culture Collection and sub-cultured according to instructions from the supplier. […] THP-1 cells were purchased from the American Type Culture Collection and sub-cultured according to instructions from the supplier. […] Cell free supernatant (40 μL) was collected using a 96-channel PlateMaster (Gilson) and the production of IL-1β was evaluated by HTRF (cisbio). […]
result-type: IC50

# molecule, result-type, result
records = [
    ("O=C(N=S1(=O)NC(=O)c2ccccc21)Nc1c2c(cc3c1CCC3)CCC2 (single isomer, unassigned) [Compound 129b]", "IC50", "5 to 30 µM"),
    ("CC(C)(O)c1ccc2c(c1)C(=O)NS2(=O)=NC(=O)Nc1c2c(cc3c1CCC3)CCC2 (single isomer, unassigned) [Compound 121a]", "IC50", "0.2 to 1 µM"),
    ("O=C(N=S1(=O)CC2(COC2)C(=O)N1)Nc1c2c(cc3c1CCC3)CCC2 (stereo not shown) [Compound 132]", "IC50", "1 to 5 µM"),
    ("CC1(C)CS(=O)(=NC(=O)Nc2c3c(cc4c2CCC4)CCC3)NC1=O (single isomer, unassigned) [Compound 102b]", "IC50", "5 to 30 µM"),
]

----------
target-system: hNLRP3 (Homo sapiens, UniProt Q96P20)
Construct: THP-1 cells were purchased from the American Type Culture Collection
test-method-notes: IL-1β production in PMA-differentiated THP-1 cells stimulated with gramicidin (hTHP-1 assay)
experimental-context: read-out: NLRP3 Antagonist, hNLRP3 (THP-1, IL-1b) Normalized: GeoMean IC50

# molecule, IC50
measured = [
    ("CC(O)(CO)c1ccc2c(c1)S(=O)(=NC(=O)Nc1c3c(cc4c1CCC4)CCC3)NC2=O (single isomer, unassigned) [Compound 208a]", "1 to 5 µM"),
    ("O=C1CCCS(=O)(=NC(=O)Nc2c3c(cc4c2CCC4)CCC3)N1 (single isomer, unassigned) [Compound 113a]", "0.2 to 1 µM"),
    ("O=C(N=S1(=O)NCc2ccccc21)Nc1c2c(cc3c1CCC3)CCC2 (single isomer, unassigned) [Compound 130a]", "> 30 µM"),
    ("CC(C)(O)c1cccc(C2CC(=O)NS2(=O)=NC(=O)Nc2c3c(cc4c2CCC4)CCC3)c1 (stereo not shown)", "0.2 to 1 µM"),
]

----------
target-system: hNLRP3 (Homo sapiens, UniProt Q96P20)
Construct: THP-1 cells were purchased from the American Type Culture Collection
test-method-notes: IL-1β production in PMA-differentiated THP-1 cells stimulated with gramicidin (hTHP-1 assay)
experimental-context: read-out: NLRP3 Antagonist, hNLRP3 (THP-1, IL-1b) Normalized: GeoMean IC50
Measured IC50 values are reported for all entries that follow.

# compound, target-system, IC50
records = [
    ("CNC(=O)c1ccc2c(c1)S(=O)(=NC(=O)Nc1c3c(cc4c1CCC4)CCC3)NC2=O (stereo not shown)", "hNLRP3 (Homo sapiens, UniProt Q96P20)", "1000 to 5000 nM"),
    ("CC(C)(O)c1ccc2c(c1)C(=O)NS2(=O)=NC(=O)Nc1c2c(cc3c1CCC3)CCC2 (stereo not shown) [Compound 121]", "hNLRP3 (Homo sapiens, UniProt Q96P20)", "200 to 1000 nM"),
    ("CC(C)(O)c1ccc2c(c1)S(=O)(=NC(=O)Nc1c3c(nc(C4CC4)c1C1CC1)CCC3)NC2=O (single isomer, unassigned) [Compound 106a]", "hNLRP3 (Homo sapiens, UniProt Q96P20)", "1000 to 5000 nM"),
    ("O=C(N=S1(=O)NC(=O)c2cccnc21)Nc1c2c(cc3c1CCC3)CCC2 (single isomer, unassigned) [Compound 223a]", "hNLRP3 (Homo sapiens, UniProt Q96P20)", "1000 to 5000 nM"),
    ("CN(C)Cc1ccc2c(c1)S(=O)(=NC(=O)Nc1c3c(cc4c1CCC4)CCC3)NC2=O (stereo not shown)", "hNLRP3 (Homo sapiens, UniProt Q96P20)", "1000 to 5000 nM"),
    ("O=C(N=S1(=O)NC(=O)c2ccc(Br)cc21)Nc1c2c(cc3c1CCC3)CCC2 (single isomer, unassigned) [Compound 103a]", "hNLRP3 (Homo sapiens, UniProt Q96P20)", "> 30000 nM"),
    ("CC(C)c1cc2c(c(C(C)C)c1CC(=O)N=S1(=O)NC(=O)c3ccc(C(C)(C)O)cc31)COC2 (stereo not shown) [Compound 104]", "hNLRP3 (Homo sapiens, UniProt Q96P20)", "> 30000 nM"),
]
